Biological target: 5-hydroxytryptamine receptor 1A (Rattus norvegicus, UniProt P19327)
Sequence (P19327 whole entry): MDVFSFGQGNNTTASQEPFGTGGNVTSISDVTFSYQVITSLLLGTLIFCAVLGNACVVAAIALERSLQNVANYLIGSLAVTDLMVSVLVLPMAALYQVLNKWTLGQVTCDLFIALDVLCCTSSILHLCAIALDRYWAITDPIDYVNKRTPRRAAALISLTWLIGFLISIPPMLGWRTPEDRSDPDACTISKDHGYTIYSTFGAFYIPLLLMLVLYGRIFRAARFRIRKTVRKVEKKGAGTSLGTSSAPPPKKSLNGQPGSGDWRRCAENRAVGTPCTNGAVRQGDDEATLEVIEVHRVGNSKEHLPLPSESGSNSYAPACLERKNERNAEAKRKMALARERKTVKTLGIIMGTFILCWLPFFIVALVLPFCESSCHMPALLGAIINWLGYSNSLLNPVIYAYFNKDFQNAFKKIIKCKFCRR
outcome-measure: Ki
Please provide the amount together with its unit, number first.

molecule COc1ccc2[nH]cc(CCN(C)C)c2c1 , Ki observed: 0.011 µM

###

Target: Melatonin receptor type 1A (Homo sapiens, UniProt P48039)
Sequence (P48039 whole entry): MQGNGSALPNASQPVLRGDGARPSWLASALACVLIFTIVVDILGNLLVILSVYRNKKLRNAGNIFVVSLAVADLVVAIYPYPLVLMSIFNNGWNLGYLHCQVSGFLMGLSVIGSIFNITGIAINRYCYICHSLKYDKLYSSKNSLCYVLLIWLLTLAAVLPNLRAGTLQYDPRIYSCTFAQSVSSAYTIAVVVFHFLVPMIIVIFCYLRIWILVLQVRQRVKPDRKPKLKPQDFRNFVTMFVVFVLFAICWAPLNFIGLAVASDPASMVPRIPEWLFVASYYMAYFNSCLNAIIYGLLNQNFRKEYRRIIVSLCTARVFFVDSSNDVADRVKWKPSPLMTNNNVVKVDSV
Test: Agonist activity at human recombinant melatonin receptor-1 expressed in CHO cells assessed as effect on impedance by cellular dielectric spectroscopy
Assay type: cell-based
outcome-measure: EC50

compound COc1ccc2[nH]cc(CCc3n[nH]c(=O)o3)c2c1 , EC50 observed: 48 nM

###

Biological target: UniProtKB P48039
Test: Agonist activity at human melatonin receptor-1 transfected in CHO cell membranes after 1 hr by GTPgammaS binding assay relative to melatonin
Format: functional
// NOT MET strictly below 60% in Emax; MET otherwise

# count of solved cases: 5
>>> assigned_class("C#CCNC(=O)Cc1c[nH]c2ccc(OC)cc12")
"MET"
>>> assigned_class("COc1ccc2[nH]cc(CCN(C)C)c2c1")
"MET"
>>> assigned_class("COc1ccc2[nH]cc(CCc3n[nH]c(=O)o3)c2c1")
"NOT MET"
>>> assigned_class("C=CCNC(=O)Cc1c[nH]c2ccc(OC)cc12")
"MET"
>>> assigned_class("COc1ccc2[nH]cc(CCc3nnc(C)o3)c2c1")
"NOT MET"

Please tell me: is the molecule C#CCNC(=O)CCc1c[nH]c2ccc(OC)cc12 at or over 60% in terms of Emax? MET

###

Biological target: Melatonin receptor type 1A (Homo sapiens)
Assay: Agonist activity at human melatonin receptor-1 transfected in CHO cell membranes after 1 hr by GTPgammaS binding assay relative to melatonin
Assay type: functional
As shown below, each of these compounds has a reported Emax value.
Dear colleague, please return just the value in %, with no unit written.

>>> recorded_result("C=CCNC(=O)CCc1c[nH]c2ccc(OC)cc12")
92
>>> recorded_result("COc1ccc2[nH]cc(Cc3nc(C)no3)c2c1")
16

Let us examine a further case.
compound COc1ccc2[nH]cc(Cc3ncc(C)o3)c2c1 , Emax observed: 23

###

Biological target: UniProt P49286
Sequence (P49286 whole entry): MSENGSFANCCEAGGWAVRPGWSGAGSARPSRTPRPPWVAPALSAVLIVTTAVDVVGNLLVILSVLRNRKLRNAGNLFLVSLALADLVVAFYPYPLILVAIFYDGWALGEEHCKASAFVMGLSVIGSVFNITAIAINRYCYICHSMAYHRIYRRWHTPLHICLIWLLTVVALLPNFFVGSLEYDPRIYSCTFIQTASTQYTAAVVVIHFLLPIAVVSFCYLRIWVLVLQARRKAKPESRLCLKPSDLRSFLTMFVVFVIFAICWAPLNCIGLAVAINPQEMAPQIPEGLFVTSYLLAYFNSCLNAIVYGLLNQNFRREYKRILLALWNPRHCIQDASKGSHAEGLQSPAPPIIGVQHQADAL
As shown below, each of these molecules has a reported Ki value.

Solved entries:
>>> recorded_result("COc1ccc2[nH]cc(Cc3nc(C)no3)c2c1")
"44 nM"
>>> recorded_result("COc1ccc2[nH]cc(CCN(C)C)c2c1 [MEBUFOTENIN]")
"16 nM"
>>> recorded_result("COc1ccc2[nH]cc(CCc3nc(C)no3)c2c1")
"> 1000 nM"
>>> recorded_result("COc1ccc2[nH]cc(CCc3n[nH]c(=S)o3)c2c1")
"530 nM"
>>> recorded_result("CCn1c(Cc2c[nH]c3ccc(OC)cc23)n[nH]c1=S")
"220 nM"

Observed Ki, UniProt P49286, COc1ccc2[nH]cc(Cc3n[nH]c(=S)o3)c2c1 : 535 nM

Observed Ki, UniProt P49286, C=CCNC(=O)Cc1c[nH]c2ccc(OC)cc12 : 4.9 nM

###

Assay: Thermodynamic solubility in NH4Cl buffer at pH 9.3 after 24 hrs by UV spectra analysis
Assay type: physicochemical
Conditions: read-out: Therm_solubility
// Not satisfied strictly below 1000 µM in solubility thermodynamic at 24 h; Satisfied otherwise

# count of solved cases: 2
>>> assigned_class("COc1ccc2[nH]cc(CCc3n[nH]c(=S)o3)c2c1")
"Satisfied"
>>> assigned_class("COc1ccc2[nH]cc(CCc3n[nH]c(=O)n3C)c2c1")
"Satisfied"

Please tell me: is the compound CCNc1nnc(Cc2c[nH]c3ccc(OC)cc23)s1 at or over 1000 µM in terms of solubility thermodynamic at 24 h? Satisfied

Please tell me: is the compound CCn1c(CCc2c[nH]c3ccc(OC)cc23)n[nH]c1=S at or over 1000 µM in terms of solubility thermodynamic at 24 h? Not satisfied

Please tell me: is the compound COc1ccc2[nH]cc(CCc3n[nH]c(=O)o3)c2c1 at or over 1000 µM in terms of solubility thermodynamic at 24 h? Satisfied

###

Please consider the recorded pKi for Melatonin receptor type 1A (Homo sapiens, UniProt P48039) in what follows.
pKi: −log10 of the molar value.

Solved entries:
>>> recorded_result("COc1ccc2[nH]cc(CCc3n[nH]c(=O)n3C)c2c1")
"< 6.00"
>>> recorded_result("COc1ccc2[nH]cc(CCc3nc(C)no3)c2c1")
"< 6.00"

Let us examine a further case.
compound COc1ccc2[nH]cc(Cc3n[nH]c(=S)o3)c2c1 , pKi observed: < 6.00
